system: OVCAR-5; assay: NCI tumour cell line growth inhibition, 48 h
The source made the active and inactive calls. Rule as the data show it: active = GI50 up to about 1.1 µM and inactive = higher.
measure: GI50

Reference set, count: 5
CCOC(=O)C1=C(C)N(C)C23OC4(C(=O)OC)CC2c2ccccc2C1N3C4=O (stereo unspecified)    > 100 µM (inactive)
CC(C)CC(NC(=O)OCc1ccccc1)C(=O)NCCCCC(N)C(=O)NC(CCCCNC(=O)C(CC(C)C)NC(=O)OCc1ccccc1)C(=O)NC(CCCCNC(=O)C(CC(C)C)NC(=O)OCc1ccccc1)C(=O)NC(CCCCNC(=O)C(CC(C)C)NC(=O)OCc1ccccc1)C(=O)NC(CCCCNC(=O)C(CC(C)C)NC(=O)OCc1ccccc1)C(=O)NC(CCCCNC(=O)C(CC(C)C)NC(=O)OCc1ccccc1)C(=O)O (stereo unspecified)    > 100 µM (inactive)
O=C(N/N=C(COc1ccccc1Cl)\N=C\c1ccncc1)c1ccncc1    > 100 µM (inactive)
NS(=O)(=O)c1cc(Cl)c(NC(=S)NC(=O)Nc2ccc(Cl)c(Cl)c2)c(Cl)c1    80.5 µM (inactive)
COC1=C(Br)C(O)C2(C=C1Br)CC(C(=O)NCCCCNC(=O)C1=NOC3(C=C(Br)C(OC)=C(Br)C3O)C1)=NO2 (stereo unspecified)    50.4 µM (inactive)

Using the record for `Cc1sc(Nc2ccccc2[N+](=O)[O-])c(C#N)c1C` , state its measured GI50.
23 µM (inactive)

State its GI50 for this molecule: C=C1C(=O)OC2/C=C(/C)C(OC(C)=O)C/C=C(\C)C(OC(=O)C3(C)OC3C)C(O)C12 (stereo unspecified)
> 100 µM (inactive)

Assign GI50 to the following record: `COC(=O)[C@]12CSCN1C(=O)C(C(C)=O)=NN2C(=O)[C@](OC)(c1ccccc1)C(F)(F)F`
> 100 µM (inactive)

Give a short answer stating reported GI50 for Cc1cn(C2OC(CO[Si](C)(C)C(C)(C)C)C(N(C)O[Si](C)(C)C(C)(C)C)C2[Se]c2ccccc2)c(=O)[nH]c1=O (stereo unspecified) .
2.82 µM (inactive)

Please give the documented GI50 of CC(C(=O)N1c2ccccc2Sc2ccccc21)N1c2ccccc2Sc2ccccc21 (stereo unspecified)
> 100 µM (inactive)

Please list GI50 recorded for the molecule `COc1ccc(C(=O)c2[nH]c(Nc3cc(C)ccn3)c(C(=S)Nc3ccccc3)c2N)cc1`
26.1 µM (inactive)

State, in one line, measured GI50 of `O=C(/C=C/c1ccccc1)c1cc(C(=O)/C=C/c2ccccc2)c(O)cc1O`
> 100 µM (inactive)

----------
test system: LXFL 529; experiment: NCI tumour cell line growth inhibition, 48 h
Activity calls are given as the source filed them. Rule as the data show it: active = GI50 up to about 1.1 µM and inactive = higher.
Choose the fitting class; nothing outside true = active, false = inactive is accepted.

// known answers, use as guide
CC(c1ccc2c(c1)CCC1C2CC2OC23CC=CC(=O)[C@]13C)C1C[C@]2(C)O[C@]2(C)[C@H](O)O1 (stereo not given in full)    false
CCc1c(OC(C)=O)c2c(NC3OC(COC(C)=O)C(OC(C)=O)C(OC(C)=O)C3OC(C)=O)nc(SC)nc2oc1=O (stereo not given)    false
Cc1ccc(N2C(=O)/C(=C/c3ccc(N(CCC#N)CCC#N)cc3C)N=C2c2cc([N+](=O)[O-])ccc2Cl)cc1    false
CCCCCCC1CCC2CCCC(C)N12 (stereo not given)    false
COC(=O)C1=C(C=O)C2C=CC1C2 (stereo not given)    false
Cc1ccc(/N=N/C2S/C(=C(\C#N)c3nc4ccccc4[nH]3)N(c3ccccc3)C2=O)cc1 (stereo not given)    false

In the following, a different molecule is considered.
Recorded call for CC(C(=O)n1nnc2ccccc21)N(c1ccccc1)c1ccccc1 (stereo not given) ?
false
